Item-by-item account of growth
- System: PC-3 prostate
- experiment summary: NCI-60 one-dose screen, 48 h (100 = growth as untreated, 0 = no growth, -100 = all killed)
- conditions: 10 µM
The panel holds about 83,000 compounds, 20% with a hit somewhere; the sample as a whole holds those more often. Calls of active or inactive are those of the source. Rule for the calls: active = growth percent below 10; inactive = the rest.
metric name: growth

compound: Cc1cn(C(=O)/C(Cl)=C(/Cl)C(=O)O)c2ccccc12
recorded value: 83.6% (inactive)

compound: CC(=O)c1c(O)cc2c3c1OC(C)(C)C1CCC(C)(CC31)O2 (centres undefined)
recorded value: 88.8% (inactive)

compound: COc1cc(-c2nc3cc(Cl)c(Cl)cc3[nH]2)ccc1OCC(=O)NN
recorded value: 73.8% (inactive)

compound: CCCCCCCCCCCCc1ccc(C(=O)/C=C/C(=O)O)cc1
recorded value: 82.9% (inactive)

compound: COc1ccc(NC(=O)c2sc3nc4c(cc3c2N)C(O)CCC4)cc1 (centres undefined)
recorded value: 95.7% (inactive)

compound: CNC(=S)Sc1ccc([N+](=O)[O-])cc1[N+](=O)[O-]
recorded value: 84.4% (inactive)

compound: CC(C)OCc1cc(CN2CCN(c3cccc(Cl)c3)CC2)c(O)c2ncccc12
recorded value: -0.0543% (active)

compound: COc1ccc(-c2nnc(N3CCN(C(=O)CN4CCN(c5ccc(Cl)cc5)CC4)CC3)nc2-c2ccc(OC)cc2)cc1
recorded value: 25.6% (inactive)

compound: Cn1c(N)c(N=Cc2ccccc2)c(=O)n(C)c1=O
recorded value: 105% (inactive)

compound: CCN(CC)CCCOC(=O)Nc1ccccc1Cl
recorded value: 96.1% (inactive)

compound: COc1ccc(-c2cc(/C=C3\C(=O)Nc4cc(Cl)ccc43)[nH]n2)cc1
recorded value: 14% (inactive)

compound: O=C(O)CN1C(=O)C=CC1=O
recorded value: 99.8% (inactive)

compound: Cn1c(=O)c2[nH]c(C(O)c3ccc(Cl)cc3)nc2n(C)c1=O (centres undefined)
recorded value: 87.9% (inactive)

compound: Cc1ccc2c3c(cccc13)-c1ccccc1C2=O
recorded value: 91.3% (inactive)

compound: CCOC(=O)c1cc2c(n1Cc1cccc(OC)c1)-c1oncc1CC2
recorded value: 32.7% (inactive)

compound: C#Cc1ccc(-n2c(/C=C/c3cc(OC)c(OC)c(OC)c3)nc3ncccc3c2=O)cc1
recorded value: 43.8% (inactive)

compound: CNC(=O)c1cc(Oc2ccc(NC(=O)Nc3ccc(Cl)c(OC4CCCCC4)c3)c(F)c2)ccn1
recorded value: 16.6% (inactive)

compound: Cc1cccc2c1O/C(=C\c1ncc([N+](=O)[O-])n1C)C2=O
recorded value: -22.4% (active)

compound: COc1ccc(Cn2cc3c(c2-c2cc(OC)c(OC)c(OC)c2)CCc2cnoc2-3)cc1N
recorded value: 31.1% (inactive)

====

- System: CAKI-1 renal
- experiment summary: NCI-60 one-dose screen, 48 h
- conditions: 10 µM
About 83,000 compounds went through this panel and 20% of them were active in at least one assay; those are over-represented in the sample as a whole. Activity calls are given as the source filed them. How the source made its calls: active means growth percent below 10; inactive means the rest.
Outcome codes: Yes for active, No for inactive

compound: CCCCCCCCCCSC(=N)N (tested in a mixture with another compound)
class name: No

compound: COc1ccc(NC(=O)c2sc3nc4c(cc3c2N)C(O)CCC4)cc1 (stereo not drawn)
class name: No

compound: COc1ccc(CCc2nc3cc(-c4c(C)noc4C)ccc3n2CCN2CCOCC2)cc1
class name: No

compound: CC(=O)Nc1ccc(Sc2ccc(NC(C)=O)cc2)cc1
class name: No

compound: O=[N+]([O-])c1ccc(-c2nc(-c3ccccc3)c(-c3ccccc3)n2-c2ccccc2)cc1
class name: No

compound: O=C(Nc1cccc([N+](=O)[O-])c1)NN1CCCCCC1
class name: No

compound: N#Cc1c(-c2ccccc2)nc(SCC(=O)N2CCOCC2)[nH]c1=O
class name: No

compound: O=C(Nc1ccc(OCc2nnc(-c3ccccc3)o2)c(F)c1)Nc1ccc(Cl)c(Cl)c1
class name: No

compound: O=C1CC[C@@H](C(=O)N[C@H]2CSSC[C@@H](C(=O)NCCc3ccccc3)NC(=O)[C@H](Cc3ccccc3)NC(=O)[C@@H]3CCCN3C(=O)[C@@H]3CCCN3C2=O)N1
class name: No

compound: C#CCNCCCN1C(=O)c2ccc3c4c(ccc(c24)C1=O)C(=O)N(CCCNCC#C)C3=O
class name: Yes

compound: C[C@]12CC[C@H]3[C@@H](CCC4=CC(=O)CC[C@@]43C)[C@@H]1CC[C@@H]2c1csc(N)n1
class name: No

compound: CCCCCCCCCCN=C(c1ccc(N(C)C)cc1)c1ccc(N(C)C)cc1
class name: No

compound: Cc1ccc([P+](Cc2ccccc2)(c2ccccc2)c2ccccc2)cc1
class name: No
